- Species: Rattus norvegicus
# key: entry, value: PI
Respond numerically; units are % and should not be typed.

Consider the reported PI for these molecules:
molecule	number
CCCCCc1noc(C2CN=CNC2)n1.O=C(O)C(F)(F)F (configuration not stated)	29
CCCCCCCCc1noc(C2CN=CNC2)n1.O=C(O)C(F)(F)F (configuration not stated)	28
CCCCc1noc(C2CN=CNC2)n1.O=C(O)C(F)(F)F (configuration not stated)	61
CCCCCCc1noc(C2CN=CNC2)n1.O=C(O)C(F)(F)F (configuration not stated)	4.3
CC(=O)OC1CN2CCC1CC2 (configuration not stated) [ACECLIDINE]	80
Cc1noc(C2CN3CCC2CC3)n1 (configuration not stated)	100
CCCCCCCc1noc(C2CN=CNC2)n1.O=C(O)C(F)(F)F (configuration not stated)	34
Cc1noc(C2=CCCN(C)C2)n1	50

Report measured PI; entry is CCc1noc(C2CN=CNC2)n1.O=C(O)C(F)(F)F (configuration not stated)
130

Report measured PI; entry is CCCc1noc(C2CN=CNC2)n1.O=C(O)C(F)(F)F (configuration not stated)
79

Report measured PI; entry is C[N+](C)(C)CCOC(N)=O.[Cl-] [CARBACHOL]
470

Report measured PI; entry is Cc1noc(C2CN=CNC2)n1.O=C(O)C(F)(F)F (configuration not stated)
700

====

- Organism: Rattus norvegicus
- experimental_protocol: cells
- condition_details: Hippocampus
- Description: Inhibition of the response (stimulation of phosphoinositol metabolism in rat hippocampus) to 10 uM of compound by pirenzepine
readout_type: IC50 (nM)
Respond numerically; units are nM and should not be typed.

Report measured IC50; entry is Cc1noc(C2CN=CNC2)n1.O=C(O)C(F)(F)F (stereo unspecified)
38

====

What follows is a collection of IC50 values obtained with Muscarinic acetylcholine receptor.
Respond numerically; units are nM and should not be typed.

Consider the reported IC50 for these compounds:
compound	assayed_system	number
CCCCCc1noc(C2CN=CNC2)n1.O=C(O)C(F)(F)F (stereo not drawn)	Muscarinic acetylcholine receptor	560
CCCCc1noc(C2CN=CNC2)n1.O=C(O)C(F)(F)F (stereo not drawn)	Muscarinic acetylcholine receptor	490
Cc1noc(C2=CCCN(C)C2)n1	Muscarinic acetylcholine receptor	690
CCCc1noc(C2CN=CNC2)n1.O=C(O)C(F)(F)F (stereo not drawn)	Muscarinic acetylcholine receptor	550
Cc1noc(C2CN3CCC2CC3)n1 (stereo not drawn)	Muscarinic acetylcholine receptor	350
CCCCCCCc1noc(C2CN=CNC2)n1.O=C(O)C(F)(F)F (stereo not drawn)	Muscarinic acetylcholine receptor	2300

Lab note: Muscarinic acetylcholine receptor assay, enter IC50 for CCCCCCc1noc(C2CN=CNC2)n1.O=C(O)C(F)(F)F (stereo not drawn) here
2300

Lab note: Muscarinic acetylcholine receptor assay, enter IC50 for CCCCCCCCc1noc(C2CN=CNC2)n1.O=C(O)C(F)(F)F (stereo not drawn) here
530

====

- Species: Rattus norvegicus
- experimental_protocol: cells
- condition_details: Hippocampus
- Description: Inhibition of the response (stimulation of phosphoinositol metabolism in rat hippocampus) to 10 uM of compound by AF-DX 116
readout_type: pIC50
Keep in mind that pIC50 stands for -log10 of concentration in molar terms.

Report measured pIC50; entry is Cc1noc(C2CN=CNC2)n1.O=C(O)C(F)(F)F (stereo unspecified)
5.77
